All figures here come from patent US20180111913A1.

# Tested On: Mtb Pks13-TE domain (wild-type) (Mycobacterium tuberculosis)
# Sequence (I6X8D2 1451-1733): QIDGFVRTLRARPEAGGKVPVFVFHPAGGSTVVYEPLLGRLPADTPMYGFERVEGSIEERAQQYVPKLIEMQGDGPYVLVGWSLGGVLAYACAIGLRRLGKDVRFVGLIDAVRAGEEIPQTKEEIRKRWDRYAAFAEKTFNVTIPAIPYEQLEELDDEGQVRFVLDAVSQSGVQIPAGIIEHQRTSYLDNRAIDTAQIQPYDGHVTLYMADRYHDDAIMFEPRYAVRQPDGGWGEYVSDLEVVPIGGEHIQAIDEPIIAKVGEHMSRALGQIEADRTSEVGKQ
# Protocol Details: biochemical
# Format: biochemical
# Condition Details: Pks13-TE, 20 μM 4-MUH; read-out: IC50
So basically: is IC50 under 1 µM? Then true (1). Not under? Then false (0).

Lab note: IC50 threshold 1 µM. Does this molecule come in strictly under it? CNC(=O)c1c(-c2ccccc2)oc2ccc(O)c(CCN3CC[C@H](Br)C3)c12 false (0)

Lab note: IC50 threshold 1 µM. Does this molecule come in strictly under it? CCOC(=O)c1c(-c2ccccc2)oc2ccc(O)c(CCN[C@@H](CC(N)=O)C(=O)O)c12 false (0)

Lab note: IC50 threshold 1 µM. Does this molecule come in strictly under it? CNC(=O)c1c(-c2ccc(F)cc2)oc2cc(O)cc(CCN[C@H](CO)Cc3cnc[nH]3)c12 false (0)

Lab note: IC50 threshold 1 µM. Does this molecule come in strictly under it? CNC(=O)c1c(-c2cccc(O)c2)oc2cc(O)cc(CN3CCCCC3)c12 false (0)

Lab note: IC50 threshold 1 µM. Does this molecule come in strictly under it? CCOC(=O)c1c(-c2ccc(OC)cc2)oc2ccc(O)c(CN3CCCCC3)c12 true (1)

Lab note: IC50 threshold 1 µM. Does this molecule come in strictly under it? CCOC(=O)c1c(-c2ccccc2)oc2ccc(O)c(CCCN3CCCC3CCC(=O)NC)c12 (centres unmarked) false (0)

Lab note: IC50 threshold 1 µM. Does this molecule come in strictly under it? CNC(=O)c1c(-c2ccccc2)oc2ccc(O)c(CCCN3CCCC4(CC(=O)C4)C3)c12 false (0)

Lab note: IC50 threshold 1 µM. Does this molecule come in strictly under it? CC(=O)NCCNC(=O)c1c(-c2ccccc2)oc2ccc(O)c(CN3CCCCC3)c12 true (1)

Lab note: IC50 threshold 1 µM. Does this molecule come in strictly under it? CNC(=O)c1c(-c2ccccc2)oc2ccc(O)c(CCNC3CCCC3)c12 false (0)

Lab note: IC50 threshold 1 µM. Does this molecule come in strictly under it? CCOC(=O)c1c(-c2ccccc2)oc2cc(NC(C)=O)c(O)c(CN3CCCCC3)c12 false (0)

Lab note: IC50 threshold 1 µM. Does this molecule come in strictly under it? CCOC(=O)c1c(-c2ccccc2)oc2ccc(O)c(CN3CCCC(CO)C3)c12 (centres unmarked) true (1)

Lab note: IC50 threshold 1 µM. Does this molecule come in strictly under it? CCOC(=O)c1c(-c2ccccc2)oc2ccc(O)c(CCCN3CC(CO)C3)c12 false (0)

Lab note: IC50 threshold 1 µM. Does this molecule come in strictly under it? CCOC(=O)c1c(-c2ccccc2)oc2ccc(O)c(CCCN3CCSC3C)c12 (centres unmarked) false (0)

Lab note: IC50 threshold 1 µM. Does this molecule come in strictly under it? CNC(=O)c1c(-c2ccccc2)oc2ccc(O)c(CCCNCc3ncco3)c12 false (0)

Lab note: IC50 threshold 1 µM. Does this molecule come in strictly under it? CCOC(=O)c1c(-c2ccccc2)oc2ccc(O)c(CCN3CC(C#N)C3)c12 false (0)

Lab note: IC50 threshold 1 µM. Does this molecule come in strictly under it? CCOC(=O)c1c(-c2ccccc2)oc2cc([N+](=O)[O-])c(O)c(CN3CCCCC3)c12 false (0)
